Biological target: UniProt P02930
Sequence (P02930 23-493): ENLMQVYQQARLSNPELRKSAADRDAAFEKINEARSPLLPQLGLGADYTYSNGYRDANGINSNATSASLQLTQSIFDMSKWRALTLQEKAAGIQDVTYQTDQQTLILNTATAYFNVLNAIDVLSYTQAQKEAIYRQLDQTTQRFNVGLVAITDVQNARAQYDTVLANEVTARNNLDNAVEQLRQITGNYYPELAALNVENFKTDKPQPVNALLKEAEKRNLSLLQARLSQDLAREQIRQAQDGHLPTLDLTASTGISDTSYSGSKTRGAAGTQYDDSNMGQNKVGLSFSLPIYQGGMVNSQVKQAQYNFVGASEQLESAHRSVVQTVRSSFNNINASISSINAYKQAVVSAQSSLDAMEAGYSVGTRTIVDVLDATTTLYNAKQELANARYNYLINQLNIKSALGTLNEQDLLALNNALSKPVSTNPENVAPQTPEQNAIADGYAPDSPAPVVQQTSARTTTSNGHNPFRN
value-kind: Kd (µM)

1) CNC(=O)c1ccccc1Nc1nc(Nc2ccc3c(c2OC)CCC[C@H](N2CCN(CCO)CC2)C3)ncc1Cl	282
